Cited source: the supplement of paper PMC9170038

The entries below are paired with their reported apparent KD of MS2 coat protein.
System: MS2 coat protein
assay.summary: apparent KD of MS2 coat protein; designed switch direction (-1 OFF switch, 1 ON switch): -1; higher = weaker reporter binding
test.settings: input ligand: none

{"item.sequence": "GGAGAGGUAGGAUAUCCACUUUAGAACAUGAGGAUCACCCAUGUAGAACCACAUGAAAUGGGAGAAGGACCAGGGA [AK-MS2ROC-r4-exclusion5-3] (Eterna round: R97, puzzle: Exclusion 5)", "units.of.measure": "nM", "apparent KD of MS2 coat protein": 56.1}
{"item.sequence": "CAGUACUGAGGAUAUACAUGAGGAUCACCCAUGUGUUCCGGCUAGGAUACUAGCAAAGGAAGAAGGCAGUACUG [Mat - Exclusion 3 - Eli Mod - D23] (Eterna round: R97, puzzle: Exclusion 3)", "units.of.measure": "nM", "apparent KD of MS2 coat protein": 17.1}
{"item.sequence": "AAAAAAAGACAAGAGGAGAAUCGUCUUAAAAAUCCUCAGACAUGAGGAUCACCCAUGUAAAAUGAUCGAAAGAUCAA [Mat - Sensor v2 - ver2 - JL mod - D42] (Eterna round: R96, puzzle: Sensor v2, turn-off variant 2)", "units.of.measure": "nM", "apparent KD of MS2 coat protein": 40.6}
{"item.sequence": "GGUUGGCGAGGAUAUACAUGAGGAUCACCCAUGUGGUCCUGUAAAAAAAAAAACCUUUGUAGAAGGCGCGGGUC [salish99_ex3_r4_034] (Eterna round: R97, puzzle: Exclusion 3)", "units.of.measure": "nM", "apparent KD of MS2 coat protein": 233}
{"item.sequence": "UACAUGAGGAUCACCCAUGUUUUGUCGUGUAUGGUAUUUAUCUAGGAUAUCAUUUUAUUUGGUUAUGAGAAGGAGAAUAUUAAU [JMF's solution 92] (Eterna round: R96, puzzle: Exclusion NG 3)", "units.of.measure": "nM", "apparent KD of MS2 coat protein": 30.5}
{"item.sequence": "GAUUAAUUAAUUAAUUAAUACAUGAGGAUCACCCAUGUAAUUUAAGAUCCUUAUACAAGCUUUGAUCUCGUCUUAUA [Stov1/5-A2] (Eterna round: R97, puzzle: Sensor, turn-off variant 1)", "units.of.measure": "nM", "apparent KD of MS2 coat protein": 159}
{"item.sequence": "AUAAUGUCAGGAUAUCAGAAGUUUAACUUCGGUUAAACUUCUGAGAAGGGACAUGAGGAUCACCCAUGUGAUUA [E4/3-B1] (Eterna round: R97, puzzle: Exclusion 4)", "units.of.measure": "nM", "apparent KD of MS2 coat protein": 1330}
{"item.sequence": "GGUAGAGUGGUAGGAUAUCCGGCUGUUUCAGUCGGAGAAGGACCACAGUCACUGGGUCCAAAUAUGGGUGACCAUGUAUCUACC [pwkr exNG1 F6.6] (Eterna round: R96, puzzle: Exclusion NG 1)", "units.of.measure": "nM", "apparent KD of MS2 coat protein": 371}
{"item.sequence": "GCCGAAAAUGAGAGGAUAUGCCUAUGGAUACGUAGGCAGAAGGCACAUGAGGAUCACCCAUGUUCCUCAACGGC [JL-BMX4-4.26 Eli mod] (Eterna round: R97, puzzle: Brourd's mod of Exclusion 4)", "units.of.measure": "nM", "apparent KD of MS2 coat protein": 14.6}
{"item.sequence": "CGGCGGGUCGCGCUGGUCCACAUGAGGAUCACCCAUGUUCCGGCACGCUGAAGGCACACGCUUUUUGCUCGUCUUAU [Sensor V1 S1] (Eterna round: R97, puzzle: Sensor, turn-off variant 1)", "units.of.measure": "nM", "apparent KD of MS2 coat protein": 35}
{"item.sequence": "ACAUGUCAUUGAGGAUAUCGCACACAUGAGGAUCACCCAUGUAAACGGAUGCUCUUUCGUGGUUUCGAGAAGGCGAUGUACAUU [Ex NG2 #97] (Eterna round: R96, puzzle: Exclusion NG 2)", "units.of.measure": "nM", "apparent KD of MS2 coat protein": 182}
{"item.sequence": "AAACAAACGGCAGGAUAUCCUCGUCAACACCACAAGUCCACUCGGACAUGAGGAUCACCCAUGUAGGAGAAGGGUCAGAAAUAC [ExNG2 4th] (Eterna round: R96, puzzle: Exclusion NG 2)", "units.of.measure": "nM", "apparent KD of MS2 coat protein": 37.1}
{"item.sequence": "AGCUGUGGCCGAGGAUAUCACGAACCAUGGAAAACCAUGGAACUCCUACAUGAGGAUCACCCAUGUGAGAAGGCGGUCUCAGCA [Eli eng2 - 020] (Eterna round: R96, puzzle: Exclusion NG 2)", "units.of.measure": "nM", "apparent KD of MS2 coat protein": 52.1}
{"item.sequence": "UAAGAGUGAGGAUAUACGUCGCUGGUCGGGAUGGACGCAUGACAUGAGGAUCACCCAUGUAGAAGGCACAAAAC [Enxela Mod 10 - Jieux - Exclusion 2] (Eterna round: R97, puzzle: Exclusion 2)", "units.of.measure": "nM", "apparent KD of MS2 coat protein": 25.4}
{"item.sequence": "CGUCUGUGAGGAUAUGGUAUCGUUUACAUGAGGAUCACCCAUGUUACAUGGGACUAGAGACUAGAAGGUACGGACG [EX5 #48] (Eterna round: R97, puzzle: Exclusion 5)", "units.of.measure": "nM", "apparent KD of MS2 coat protein": 391}
{"item.sequence": "UAUUAUCAAGCAAGAUCCCACAUGAGGAUCACCCAUGUGCUCGUCUUAUUUCUGGCCUUAUUGGUCUCUCGUCUAAU [JR_STOV1_v2_Sub095] (Eterna round: R97, puzzle: Sensor, turn-off variant 1)", "units.of.measure": "nM", "apparent KD of MS2 coat protein": 26.7}
{"item.sequence": "AGAGAAAAUCUAGGAUAUGUGUAUGCCGCGUGCGCAGAAGGAGACAUGAGGAUCACCCAUGUAAAGAGACAGAAGACGACCAAA [Matt's Exclusion] (Eterna round: R96, puzzle: Exclusion NG 1)", "units.of.measure": "nM", "apparent KD of MS2 coat protein": 67.5}
{"item.sequence": "GAAAAUUGGGCAGGAUAUCUAAUGAAAGAAACCGGAGAAGGGCCGGUGGCAAUUGCAGACAUGAGGAUCACCCAUGUAGUUGCA [Eternabot solution 42] (Eterna round: R96, puzzle: Exclusion NG 1)", "units.of.measure": "nM", "apparent KD of MS2 coat protein": 14.9}
